tested on: Coxsackievirus B3; assay: Antiviral activity against wild type Coxsackievirus B3 97927 infected in human HeLa cell line assessed as inhibition of virus-induced cytopathic effect measured after 48 hrs by crystal violet uptake assay; type: functional, organism-based; details: read-out: IC50
Result type: IC50 (nM)

[[record]]
structure_smiles_string = "CN(C)C(=O)c1cc(CCCOc2ccc(-c3noc(C(F)(F)F)n3)cc2C(F)(F)F)on1"
reported = 160


====

tested on: Coxsackievirus B3; assay: Antiviral activity against wild type Coxsackievirus B3 97927 infected in human HeLa cell line assessed as inhibition of virus-induced cytopathic effect measured after 48 hrs by crystal violet uptake assay; type: functional, organism-based; conditions: Enterovirus B, 97927, HeLa, 48 h; read-out: IC50
Where a name gives a salt, the structure may show the parent alone.
# log10(IC50) values compiled below
Result type: log10(IC50) (log10 of the value in nM)

[[record]]
compound = "Cc1cc(-c2noc(C(F)(F)F)n2)cc(C)c1OCCCc1cc(-c2ccccc2)no1"
result_type = "log10(IC50)"
reported = 2.15

[[record]]
compound = "N=C(N)N [GUANIDINE HYDROCHLORIDE]"
result_type = "log10(IC50)"
reported = 5.77

[[record]]
compound = "CN(C)C(=O)c1cc(CCCOc2ccc(-c3noc(C(F)(F)F)n3)cc2[N+](=O)[O-])on1"
result_type = "log10(IC50)"
reported = 0.48

[[record]]
compound = "CN(C)C(=O)c1cc(CCCOc2ccc(-c3noc(C(F)(F)F)n3)cc2-n2cccc2)on1"
result_type = "log10(IC50)"
reported = 2.91

[[record]]
compound = "CCOC(=O)c1cc(CCCOc2c(C)cc(-c3noc(C(F)(F)F)n3)cc2C)on1"
result_type = "log10(IC50)"
reported = 1.85

[[record]]
compound = "CCOC(=O)c1cc(CCCOc2ccc(-c3noc(C(F)(F)F)n3)cc2F)on1"
result_type = "log10(IC50)"
reported = 2.34

[[record]]
compound = "CCOC(=O)c1cc(CCCOc2ccc(-c3noc(C(F)(F)F)n3)cc2C(F)(F)F)on1"
result_type = "log10(IC50)"
reported = 1.48

[[record]]
compound = "Cc1cc(-c2noc(C(F)(F)F)n2)cc(C)c1OCCCc1cc(C(N)=O)no1"
result_type = "log10(IC50)"
reported = 1.85

[[record]]
compound = "Cc1cc(-c2noc(C(F)(F)F)n2)ccc1OCCCc1cc(C(=O)N(C)C)no1"
result_type = "log10(IC50)"
reported = 1.30

[[record]]
compound = "COc1cc(-c2noc(C(F)(F)F)n2)cc([N+](=O)[O-])c1OCCCc1cc(C(=O)N(C)C)no1"
result_type = "log10(IC50)"
reported = 2.56


Data origin: ChEMBL document CHEMBL4765245
